assay: changes in parasitized red cell lysis, either direction – P. falciparum Indochina, OD700, 3 h, PSAC antagonist project, primary screen (AID 1156)
condition-parameters: P. falciparum-infected erythrocytes, osmotic lysis, higher = more signal, called active from +8 up or from −8 down
Note to self: class labels come from recorded z-score, ranges listed here: low: < 0.2; middle: ≥ 0.2 and < 0.6; high: ≥ 0.6

1) CC(=O)n1cc(C(O)C2C=CC3C(=O)NC(=O)C3N2Nc2ccccn2)c2ccccc21 (stereo unspecified)	low
2) OB1C=CCC(CCc2ccccc2)O1 (stereo unspecified)	low
3) CC1CC/C=C\[C@H]2OC34C=CCN(Cn5nnc6ccccc65)C(=O)[C@H]3N(CCCCCO)C(=O)[C@@H]4C2C(=O)O1 (stereo partly specified)	low

Qu. Record `CC(C)C(=C=CC[C@H](O)c1ccc(CO)o1)CCO` — which class?
Ans. low

Qu. Determine which band this compound sits in: `COCCOC(=O)N1C(=O)[C@@]2(c3cc(C#CC4(O)CCCCCC4)ccc31)[C@H](C(=O)Nc1nc3ccccc3s1)[C@H]1C(=O)O[C@H](c3ccccc3)[C@H](c3ccccc3)N1[C@@H]2c1ccc(OCCO)cc1`
Ans. high

Qu. Kindly state the category for this compound: `CCCCCCc1nc(-c2ccc(-c3ccc(Cl)c(Cl)c3)o2)cc2c1[Si](C(C)C)(C(C)C)O[C@H]2c1ccccc1`
Ans. high

Qu. Entry `COc1ccc(C(=O)Nc2ccc(CN3C(=O)[C@]4(O[C@H](CC(=O)N5CCC[C@H]5CO)[C@@H]([Si](C)(C)c5ccc(OC)cc5)[C@@H]4C)c4ccccc43)cc2)cc1` belongs to which category?
Ans. low

Qu. Given `O=C(NC1CC1)[C@@H]1c2ccccc2C(=O)N(C2Cc3ccccc3C2)[C@H]1c1ccc(CO)cc1` , name the class its z-score places it in.
Ans. middle

Qu. Could you tell me which band `[N-]=[N+]=NCc1ccccc1[C@@H]1OC(c2ccc(OCCCO)cc2)=N[C@]1(CCS(=O)(=O)c1ccccc1)C(N)=O` belongs to?
Ans. high

Qu. Note: place this compound into its band. Item: `Cc1ccc(/C=C/C=O)cc1`
Ans. low

Qu. Form: Item = `CCCNC(=O)[C@@]1(Sc2ccc(C)cc2)CC(=O)N(Cc2ccccc2C(F)(F)F)[C@@H]1c1ccc(CO)cc1I` ; Class = ?
Ans. middle

Qu. Lab note: which band did `COc1ccc([C@H]2OC[C@@H]3CCC(=O)N32)cc1` land in?
Ans. low

Qu. Please report the category associated with O=C1C2C=CC(C(O)c3ccc(-c4ccccc4)s3)N(Nc3ccccc3)C2C(=O)N1c1ccccc1 (stereo unspecified) , nothing else.
Ans. middle

Qu. Which of the defined bands does the recorded z-score of `COC(=O)[C@@]1(Cc2ccc(OC)cc2)[C@H]2c3cc(C(=O)N4CCCC4)n(CCCNc4ncc(C(F)(F)F)cc4Cl)c3C[C@H]2CN1C(=O)c1ccccc1` sit within?
Ans. high

Qu. Returns: class label. Input: `C=CCNC(=O)[C@@H]1[C@H]2C(=O)O[C@H](c3ccccc3)[C@H](c3ccccc3)N2[C@H](c2ccc(OCCO)cc2)[C@@]12C(=O)N(C(=O)OCCOC)c1ccc(C#CCNC(N)=O)cc12`
Ans. high

Qu. The entry to classify is `[N-]=[N+]=Nc1ccccc1[C@H]1OC(c2ccc(OCCCO)cc2)=N[C@@]1(CCS(=O)(=O)c1ccccc1)C(=O)NCc1ccccc1` ; which class holds it?
Ans. high

---

Tested on: Plasmodium falciparum Sir2 (PF13_0152, Sir2A)
assay: Plasmodium falciparum Sir2A binding compounds – biochemical, small-molecule microarray, 635 nm fluorescence, primary screen (AID 1098);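 note: score merges spot fluorescence intensity with its signal-to-noise ratio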
condition-parameters: fluorescence 635 nm, higher = more signal
Recorded measurements of composite z-score, one per entry
Just the number, please, no unit attached.

Field: example entries. Status: answers known.
1) C#CCN(C/C=C/c1ccccc1)[C@H](CO)c1ccccc1	-0.222
2) CO[C@H]1O[C@H](CO)[C@@H](OC(=O)Nc2ccc(Oc3ccccc3)cc2)[C@H](OC(=O)Nc2ccc3c(c2)OCO3)[C@@H]1OC(=O)Nc1ccc2c(c1)OCO2	1.38
3) COc1cc2c(cc1O)C(c1cccs1)N(Cc1ccc([N+](=O)[O-])o1)CC2 (stereo not drawn)	1.15
4) CCCC1(C(=O)OC)C=C2C(=C(c3ccccc3)C(=O)C2C)CN1 (stereo not drawn)	-0.495

Lab note: next molecule to report on.
Qu. So what does the record say about composite z-score for [N-]=[N+]=Nc1ccccc1C[C@]1(C(=O)NCC(O)CO)N=C(c2ccc(OCCCO)cc2)O[C@H]1c1ccccc1 (stereo partly drawn) ?
Ans. 0.848

---

Catalogue of composite z-score values
subject-of-test: Neurogenic locus notch homolog protein 2 (Homo sapiens)
assay: small molecules binding Notch2 protein – biochemical, small-molecule microarray, 635 nm fluorescence, stem cell growth factors, primary screen (AID 1073)
condition-parameters: higher = more signal
Could you keep your reply to the number by itself?

Examples with answers:
1) CN(C)CCCC[C@@H]1NC(=O)[C@H]2C[C@@H](C(=O)NCCCCCN)[C@@H](c3cccc(OCCO)c3)N2C1=O	1.12
2) C=CCOC(=O)[C@H]1[C@@H]2C(=O)O[C@@H](c3ccccc3)[C@@H](c3ccccc3)N2[C@@H](c2ccc(OCCOC(=O)[C@@H]3C[C@@H]4C(=O)N5CCC[C@H]5C(=O)N4[C@@H]3c3cccc(OCCO)c3)cc2)[C@]12C(=O)Nc1ccc(I)cc12	0.373

Qu. Given the entry `COC(=O)[C@@]1(Cc2ccc(OC)cc2)[C@H]2c3cc(C(=O)N4CCCC4)n(CCCNc4ncc(C(F)(F)F)cc4Cl)c3C[C@H]2CN1C(=O)c1ccccc1` , report its measured composite z-score.
Ans. 1.7

Qu. Fill in: composite z-score of `COc1ccc(CCNC(=O)[C@@]2(c3ccc([N+](=O)[O-])cc3)CC(=O)N(CC34CC5CC(CC(C5)C3)C4)[C@@H]2c2ccc(CO)cc2I)cc1` is ___
Ans. 0.6

Qu. Which composite z-score value is on record for `Cc1ccc(S[C@]2(C(=O)O)CC(=O)N(Cc3ccccc3C(F)(F)F)[C@@H]2c2ccc(CO)cc2I)cc1` ?
Ans. -1.23

Qu. # query: composite z-score of entry `[N-]=[N+]=NCc1ccccc1[C@@H]1OC(c2ccc(OCCCO)cc2)=N[C@]1(CCS(=O)(=O)c1ccccc1)C(N)=O`
Ans. 1.33

---

assay: calcein-AM signal in unstimulated myeloma cells – cell-based, calcein-AM fluorescence, 48 h, PK04 Diversity Set, profiling panel (AID 1166);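 note: cells grown under basal conditions without added stimulus; test concentration not given here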
condition-parameters: RPMI8226 myeloma viability, higher = more signal
Items are presented alongside their recorded z-score.
Give a plain numeric answer without units written out.

1. COCCOC(=O)N1C(=O)[C@@]2(c3cc(C#CC4=CCCCC4)ccc31)[C@H](C(N)=O)[C@H]1C(=O)O[C@H](c3ccccc3)[C@H](c3ccccc3)N1[C@@H]2c1ccc(O)cc1	-4.54

From here, focus on the item given below.
Qu. // query z-score value for entry C=CCC(OC(C)=O)[C@@H]1[C@@H](N(Cc2ccc(-c3ccccc3)cc2)C(=O)Cc2ccc(F)cc2)c2cc(OCCCO)ccc2N1C(=O)c1ccc2ccccc2c1 (some centres undefined)
Ans. -0.344

---

subject-of-test: Calmodulin-1 (Homo sapiens)
assay: small molecules binding Ca-loaded calmodulin-1 – biochemical, small-molecule microarray, Cy5-labelled CALM1, plus calcium, artefact control for SMM control-protein annotation, profiling panel (AID 1112);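 note: score merges spot fluorescence with signal to noise from triplicate slides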
condition-parameters: Cy5-CALM1 binding fluorescence, higher = more signal
metric-name: composite z-score
No unit in the answer, only the number.

Qu. Kindly state the measured composite z-score obtained for CS(=O)(=O)CCOC(=O)C1=CC(CCCO)=CC(c2ccc(CN3CCCC3)cc2)N(Cc2cccc(OC(F)(F)F)c2)C=C1C(=O)OCCS(C)(=O)=O (centres undefined) with Calmodulin-1 (Homo sapiens).
Ans. 0.217

Qu. Query composite z-score on Calmodulin-1 (Homo sapiens) for `CN(C)CCCCNC(=O)[C@@H]1C[C@@H]2C(=O)N[C@@H](CCCCN)C(=O)N2[C@@H]1c1ccc(O)cc1`
Ans. -0.288

---

Below, each of the molecules is paired with its reported z-score value.
assay: JC-1 mitochondrial signal, unstimulated MM1S myeloma – cell-based, JC-1 fluorescence, 24 h, 100 nL compound, profiling panel (AID 1170); note: test concentration not given here
condition-parameters: MM1S mitochondrial potential, higher = more signal
Give only the figure.

1) COc1cc(CO)cc(I)c1O[C@H]1C=C(C(=O)NCCO)C[C@@H](N(C(=O)c2cc3ccccc3oc2=O)C2CCCCCC2)[C@@H]1O	-1.21

Qu. Query: z-score; subject: `C=CCOC(=O)[C@H]1[C@@H]2C(=O)O[C@@H](c3ccccc3)[C@@H](c3ccccc3)N2[C@@H](c2ccc(OCCOC(=O)[C@H]3C[C@H]4C(=O)N[C@@H](CCCCN(C)C)C(=O)N4[C@H]3c3cccc(OCCO)c3)cc2)[C@]12C(=O)Nc1ccc(I)cc12`
Ans. -0.465

Qu. Which z-score is reported for this molecule? `COC(=O)C[C@H]1O[C@@H](CCc2ccccc2)[C@@H](C)[C@@H]1[Si](C)(C)c1ccc(OC)cc1`
Ans. -0.0681
